Reported inhibition is given for each of the following molecules.
molecular target: Ephrin type-A receptor 4 (Homo sapiens) (UniProt P54764); settings: at 1 µM
Sequence (P54764 whole entry): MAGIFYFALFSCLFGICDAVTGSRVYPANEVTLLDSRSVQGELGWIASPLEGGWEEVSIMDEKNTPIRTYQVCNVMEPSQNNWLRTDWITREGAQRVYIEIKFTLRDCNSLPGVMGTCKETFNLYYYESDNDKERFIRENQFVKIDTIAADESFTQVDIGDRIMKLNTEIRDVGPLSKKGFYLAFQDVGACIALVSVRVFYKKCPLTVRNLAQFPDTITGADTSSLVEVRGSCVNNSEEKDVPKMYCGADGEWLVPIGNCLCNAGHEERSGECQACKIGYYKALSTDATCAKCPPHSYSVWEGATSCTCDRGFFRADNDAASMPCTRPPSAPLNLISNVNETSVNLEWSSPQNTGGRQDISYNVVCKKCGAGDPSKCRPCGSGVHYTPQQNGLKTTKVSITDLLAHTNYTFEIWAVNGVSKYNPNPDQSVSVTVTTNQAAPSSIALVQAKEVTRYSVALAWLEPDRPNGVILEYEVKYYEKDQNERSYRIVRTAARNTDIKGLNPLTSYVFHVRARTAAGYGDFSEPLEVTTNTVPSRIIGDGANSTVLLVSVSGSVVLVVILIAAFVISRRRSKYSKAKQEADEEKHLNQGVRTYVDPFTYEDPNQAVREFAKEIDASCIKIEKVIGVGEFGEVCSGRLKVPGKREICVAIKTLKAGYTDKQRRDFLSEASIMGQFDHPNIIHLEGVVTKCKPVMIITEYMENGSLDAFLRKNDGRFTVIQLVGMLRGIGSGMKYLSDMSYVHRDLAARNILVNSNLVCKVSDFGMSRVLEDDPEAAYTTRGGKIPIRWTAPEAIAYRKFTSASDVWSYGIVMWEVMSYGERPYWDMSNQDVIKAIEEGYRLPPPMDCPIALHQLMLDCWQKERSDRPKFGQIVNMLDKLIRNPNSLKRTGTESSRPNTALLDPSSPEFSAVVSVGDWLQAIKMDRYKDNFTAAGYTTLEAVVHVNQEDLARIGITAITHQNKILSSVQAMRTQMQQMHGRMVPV
Description: GSK_PKIS: EPHA4 mean inhibition at 1 uM [Nanosyn]
property_measured: inhibition (%)

>  <given_smiles>
CCN(CC)S(=O)(=O)c1ccc(OC)c(Nc2ncc(-c3ccccc3)o2)c1

>  <unit>
%

>  <recorded_number>
13.8

$$$$
>  <given_smiles>
Fc1ccc(-c2nn3ncccc3c2-c2ccnc(Nc3ccc4c(c3)OCCO4)n2)cc1

>  <unit>
%

>  <recorded_number>
55.5

$$$$
>  <given_smiles>
COc1ccc2[nH]c3c4[nH]c5ccc(OC)cc5c4c4c(c3c2c1)C(=O)NC4=O

>  <unit>
%

>  <recorded_number>
22.6

$$$$
>  <given_smiles>
COc1cc2ncn(-c3cc(OCc4ccccc4C(F)(F)F)c(C(=O)N(C)C)s3)c2cc1OC

>  <unit>
%

>  <recorded_number>
4.19

$$$$
>  <given_smiles>
Clc1ccc(-c2nn3ncccc3c2-c2ccnc(Nc3ccccc3)n2)cc1

>  <unit>
%

>  <recorded_number>
23.3

$$$$
>  <given_smiles>
CCCN(CCS(C)(=O)=O)Cc1ccc(-c2ccc3ncnc(Nc4ccc(OCc5cccc(F)c5)c(Cl)c4)c3c2)o1

>  <unit>
%

>  <recorded_number>
5.71

$$$$
>  <given_smiles>
CN1CCC(n2cnc(-c3ccc(F)cc3)c2-c2ccnc(Nc3ccccc3)n2)CC1

>  <unit>
%

>  <recorded_number>
13.3

$$$$
>  <given_smiles>
COc1ccc(CNC(=O)c2ccc(-c3cc(-c4nnc(C)o4)ccc3C)cc2)cc1

>  <unit>
%

>  <recorded_number>
15.7

$$$$
>  <given_smiles>
CNC(=O)c1cccc(C#Cc2cncnc2Nc2ccc(OCc3cccc(F)c3)c(Cl)c2)c1

>  <unit>
%

>  <recorded_number>
6.8

$$$$
>  <given_smiles>
CCn1c(-c2nonc2N)nc2c(C#CC(C)(C)O)ncc(OC3CCNCC3)c21

>  <unit>
%

>  <recorded_number>
6.59

$$$$
>  <given_smiles>
COC(=O)c1sc(-n2cnc3cc(OC)c(OC)cc32)cc1OCc1ccccc1C(F)(F)F

>  <unit>
%

>  <recorded_number>
4.17

$$$$
>  <given_smiles>
FC(F)(F)c1cccc(-c2nn3ncccc3c2-c2ccnc(Nc3ccc4c(c3)OCCO4)n2)c1

>  <unit>
%

>  <recorded_number>
7.91

$$$$
>  <given_smiles>
COc1cccc(-n2ncc3c(N/N=C/c4ccc(F)cc4)ncnc32)c1

>  <unit>
%

>  <recorded_number>
15.7

$$$$
>  <given_smiles>
CCN1CCC(CC(=O)Nc2n[nH]c3nnc(-c4cccc(F)c4F)cc23)CC1

>  <unit>
%

>  <recorded_number>
7.67

$$$$
>  <given_smiles>
Cc1ccc(O)cc1Nc1ccnc2cc(-c3ccccn3)ccc12

>  <unit>
%

>  <recorded_number>
90.9

$$$$
>  <given_smiles>
NC(=O)c1sc(-n2cnc3ccc(C(F)(F)F)cc32)cc1OCc1ccccc1Br

>  <unit>
%

>  <recorded_number>
8.59

$$$$
>  <given_smiles>
COC(=O)Nc1nc2ccc(S(=O)(=O)c3ccc(NC(=O)Nc4cc(C(F)(F)F)ccc4F)cc3)cc2[nH]1

>  <unit>
%

>  <recorded_number>
9.4

$$$$
>  <given_smiles>
O=C(O[C@H]1CN[C@H](C#Cc2cc3ncnc(Nc4ccc(Cc5ccccc5)cc4)c3s2)C1)N1CCOCC1

>  <unit>
%

>  <recorded_number>
5.5

$$$$
>  <given_smiles>
Nc1ncc(-c2cccc(S(N)(=O)=O)c2)c2scc(-c3ccc(F)c(Cl)c3)c12

>  <unit>
%

>  <recorded_number>
92

$$$$
